Data origin: patent US9738599B2

Calcium mobilization, Percentage of Control, TPβ by entry:
target or test system: TPβ (Homo sapiens)
Construct: expressed in transfected cells
Sequence (P21731 1-407 isoform P21731-2): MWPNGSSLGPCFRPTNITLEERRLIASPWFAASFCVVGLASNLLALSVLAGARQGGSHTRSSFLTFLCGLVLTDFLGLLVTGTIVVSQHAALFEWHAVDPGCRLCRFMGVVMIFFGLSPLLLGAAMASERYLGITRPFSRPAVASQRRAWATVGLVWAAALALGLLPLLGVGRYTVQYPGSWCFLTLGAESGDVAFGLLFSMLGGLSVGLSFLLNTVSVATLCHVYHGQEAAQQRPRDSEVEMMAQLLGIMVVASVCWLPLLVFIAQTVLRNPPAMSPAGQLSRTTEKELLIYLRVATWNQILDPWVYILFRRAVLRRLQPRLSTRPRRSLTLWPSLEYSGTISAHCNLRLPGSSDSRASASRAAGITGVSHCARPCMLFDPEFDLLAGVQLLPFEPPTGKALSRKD
measurement description: U46619-induced [Ca2+]i mobilization in HEK.TPβ cells
Type: cell-based
test context: antagonist 1 μM; 1 μM U46619; HEK.TPβ; mean ± S.E.M.
reported endpoint: Calcium mobilization, Percentage of Control, TPβ (%)

>>> endpoint_result("COc1ccc(-c2cccc(Oc3ccc(Cl)cc3S(=O)(=O)NC(=O)NC(C)(C)C)c2)cc1")
46.5
>>> endpoint_result("COc1ccc(-c2cccc(Oc3ccc(S(C)(=O)=O)cc3S(=O)(=O)NC(=O)NC(C)(C)C)c2)cc1")
36.4
>>> endpoint_result("COc1ccc(-c2cccc(Oc3ccc(C(F)(F)F)cc3S(=O)(=O)NC(=O)NC(C)(C)C)c2)cc1")
46.0
>>> endpoint_result("COc1ccc(-c2cccc(Oc3cc(C)c(C#N)cc3S(=O)(=O)NC(=O)NC(C)(C)C)c2)cc1")
93.6
